- TESTED_SYSTEM: T1, Abz-LPETGK(Dnp)-CONH2
- T1 chain: LPETGK
RECORDED_ENDPOINT: kcat/Km LPETG (M⁻¹ s⁻¹)
Report the value in M⁻¹ s⁻¹ with no unit label.

INSERT INTO results (protein, recorded_endpoint, value) VALUES
  ('P94S/D160N/K196T srtA (enzyme) MQAKPQIPKDKSKVAGYIEIPDADIKEPVYPGPATSEQLNRGVSFAEENESLDDQNISIAGHTFIDRPNYQFTNLKAAKKGSMVYFKVGNETRKYKMTSIRNVKPTDVEVLDEQKGKDKQLTLITCDDYNEKTGVWETRKIFVATEVKLEHHHHHH', 'kcat/Km LPETG', 8600),
  ('P94R/D160N/D165A/K190E/K196T srtA (protein) MQAKPQIPKDKSKVAGYIEIPDADIKEPVYPGPATREQLNRGVSFAEENESLDDQNISIAGHTFIDRPNYQFTNLKAAKKGSMVYFKVGNETRKYKMTSIRNVKPTAVEVLDEQKGKDKQLTLITCDDYNEETGVWETRKIFVATEVKLEHHHHHH', 'kcat/Km LPETG', 23000);

For D160N/K190E/K196T (clone 4.2) (protein) MQAKPQIPKDKSKVAGYIEIPDADIKEPVYPGPATPEQLNRGVSFAEENESLDDQNISIAGHTFIDRPNYQFTNLKAAKKGSMVYFKVGNETRKYKMTSIRNVKPTDVEVLDEQKGKDKQLTLITCDDYNEETGVWETRKIFVATEVKLEHHHHHH , what is its reported kcat/Km LPETG?
2400
